assay: Metabolic stability in mouse liver microsomes (MLM); format: in vitro ADME; settings: MLM (CD-1), 1 μM, 0.50 mg protein per mL
Below is a list of entries, each paired with its recorded t1/2 value.

smiles_data: CCN(CC)C(=O)[C@@H]1C=C2c3cccc4[nH]cc(c34)C[C@H]2N(Cc2ccccc2OC)C1
t1/2, min: 1
--
smiles_data: CCN(CC)C(=O)[C@@H]1C=C2c3cccc4[nH]cc(c34)C[C@H]2N(CCc2ccccn2)C1
t1/2, min: 1.8
--
smiles_data: C[C@H]1C[C@H](C)N1C(=O)[C@@H]1C=C2c3cccc4[nH]cc(c34)C[C@H]2N(C)C1
t1/2, min: 13.9
--
smiles_data: C=CCN1C[C@@H](C(=O)N[C@H](C)CC)C=C2c3cccc4[nH]cc(c34)C[C@H]21
t1/2, min: 0.8
--
smiles_data: CCCN1C[C@H](C(=O)N2[C@@H](C)C[C@@H]2C)C=C2c3cccc4[nH]cc(c34)C[C@H]21
t1/2, min: 0.8
--
smiles_data: CCN(CC)C(=O)[C@@H]1C=C2c3cccc4[nH]cc(c34)C[C@H]2N(Cc2ccccc2O)C1
t1/2, min: 1.3

====

target: 5-HT1A receptor (Homo sapiens, UniProt P08908); construct: host or cells: CHO cells; test: cell-based; conditions: Ca^2+ flux, agonist; read-out: 5-HT1A EC50
Sequence (P08908 whole entry): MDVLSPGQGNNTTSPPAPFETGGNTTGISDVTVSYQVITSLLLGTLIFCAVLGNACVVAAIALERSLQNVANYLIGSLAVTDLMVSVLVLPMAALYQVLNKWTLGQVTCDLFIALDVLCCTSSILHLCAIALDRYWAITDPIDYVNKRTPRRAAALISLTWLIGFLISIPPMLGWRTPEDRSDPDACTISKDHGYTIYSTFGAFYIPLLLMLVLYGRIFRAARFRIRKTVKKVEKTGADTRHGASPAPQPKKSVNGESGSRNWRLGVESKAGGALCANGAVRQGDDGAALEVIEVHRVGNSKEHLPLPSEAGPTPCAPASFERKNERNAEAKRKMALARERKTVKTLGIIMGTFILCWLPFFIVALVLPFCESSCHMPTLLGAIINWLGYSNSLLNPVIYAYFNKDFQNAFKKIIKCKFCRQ
Below, each entry is listed alongside its reported EC50.

smiles_data: CCN(CC)C(=O)[C@@H]1C=C2c3cccc4[nH]cc(c34)C[C@H]2N(Cc2ccccc2O)C1
EC50: > 10 µM

smiles_data: CCN(CC)C(=O)[C@@H]1C=C2c3cccc4[nH]cc(c34)C[C@H]2N(CCc2ccccn2)C1
EC50: > 10 µM

smiles_data: CCN(CC)C(=O)[C@@H]1C=C2c3cccc4[nH]c(Br)c(c34)C[C@H]2N(CCCF)C1
EC50: > 10 µM

====

The molecules listed here are annotated with their microsomal CLint at 1 μM.
assay: Metabolic stability in human liver microsomes (HLM); assay type: in vitro ADME; details: both sexes, human, pooled human liver microsomes, pH 7.4, 0.50 mg protein per mL

molecule: CN1C[C@H](C(=O)N2CCCC2)C=C2c3cccc4[nH]cc(c34)C[C@H]21 [Int22]
unit_of_measure: µL/min/mg
relation_operator: <
microsomal CLint at 1 μM: 9.6
--
molecule: CCCN1C[C@H](C(=O)N(CC)CC)C=C2c3cccc4[nH]c(Br)c(c34)C[C@H]21 [Compound 9]
unit_of_measure: µL/min/mg
relation_operator: =
microsomal CLint at 1 μM: 140
--
molecule: CC[C@@H](C)NC(=O)[C@H]1C=C2c3cccc4[nH]cc(c34)C[C@H]2N(CC)C1 [Compound 5a]
unit_of_measure: µL/min/mg
relation_operator: =
microsomal CLint at 1 μM: 251
--
molecule: C=CCN1C[C@H](C(=O)N[C@H](C)CC)C=C2c3cccc4[nH]cc(c34)C[C@H]21 [Compound 8]
unit_of_measure: µL/min/mg
relation_operator: =
microsomal CLint at 1 μM: 174
